Reported pKd values for the following binders.
Target: feline FcRn complex (FcRn-α subunit and β-microglobulin), biotin labeled (feline)
Assay: SPR, pH 6
Convention used: pKd is expressed as -log10 of the molar concentration.

# binder, measurement_kind, numeric_result
measured = [
    ("feline IgG1a S428Y/D312P (antibody, part only; not given: Variable domains, not shown: another chain or arm of the molecule; small tags and cut ends) constant: ASTTAPSVFPLAPSCGTTSGATVALACLVLGYFPEPVTVSWNSGALTSGVHTFPAVLQASGLYSLSSMVTVPSSRWLSDTFTCNVAHPPSNTKVDKTVRKTDHPPGPKPCDCPKCPPPEMLGGPSIFIFPPKPKDTLSISRTPEVTCLVVDLGPDDSDVQITWFVDNTQVYTAKTSPREEQFNSTYRVVSVLPILHQPWLKGKEFKCKVNSKSLPSPIERTISKAKGQPHEPQVYVLPPAQEELSRNKVSVTCLIKSFHPPDIAVEWEITGQPEPENNYRTTPPQLDSDGTYFVYSKLSVDRSHWQRGNTYTCSVYHEALHSHHTQKSLTQSPGK", "pKd", 7.47),
]

Task item: Reported pKd, binder feline IgG1a S428Y/L314K/S434Y (antibody, part only; not given: Variable domains, not shown: another chain or arm of the molecule) constant: ASTTAPSVFPLAPSCGTTSGATVALACLVLGYFPEPVTVSWNSGALTSGVHTFPAVLQASGLYSLSSMVTVPSSRWLSDTFTCNVAHPPSNTKVDKTVRKTDHPPGPKPCDCPKCPPPEMLGGPSIFIFPPKPKDTLSISRTPEVTCLVVDLGPDDSDVQITWFVDNTQVYTAKTSPREEQFNSTYRVVSVLPILHQDWKKGKEFKCKVNSKSLPSPIERTISKAKGQPHEPQVYVLPPAQEELSRNKVSVTCLIKSFHPPDIAVEWEITGQPEPENNYRTTPPQLDSDGTYFVYSKLSVDRSHWQRGNTYTCSVYHEALHYHHTQKSLTQSPGK : ____
Reply: 9.10

Task item: Reported pKd, binder feline IgG1a Q311I (antibody, part only; not given: Variable domains, not shown: another chain or arm of the molecule) constant: ASTTAPSVFPLAPSCGTTSGATVALACLVLGYFPEPVTVSWNSGALTSGVHTFPAVLQASGLYSLSSMVTVPSSRWLSDTFTCNVAHPPSNTKVDKTVRKTDHPPGPKPCDCPKCPPPEMLGGPSIFIFPPKPKDTLSISRTPEVTCLVVDLGPDDSDVQITWFVDNTQVYTAKTSPREEQFNSTYRVVSVLPILHIDWLKGKEFKCKVNSKSLPSPIERTISKAKGQPHEPQVYVLPPAQEELSRNKVSVTCLIKSFHPPDIAVEWEITGQPEPENNYRTTPPQLDSDGTYFVYSKLSVDRSHWQRGNTYTCSVSHEALHSHHTQKSLTQSPGK : ____
Reply: 8.15

Task item: Reported pKd, binder feline IgG1a Q311W/D312P (antibody, part only; not given: Variable domains, not shown: another chain or arm of the molecule) constant: ASTTAPSVFPLAPSCGTTSGATVALACLVLGYFPEPVTVSWNSGALTSGVHTFPAVLQASGLYSLSSMVTVPSSRWLSDTFTCNVAHPPSNTKVDKTVRKTDHPPGPKPCDCPKCPPPEMLGGPSIFIFPPKPKDTLSISRTPEVTCLVVDLGPDDSDVQITWFVDNTQVYTAKTSPREEQFNSTYRVVSVLPILHWPWLKGKEFKCKVNSKSLPSPIERTISKAKGQPHEPQVYVLPPAQEELSRNKVSVTCLIKSFHPPDIAVEWEITGQPEPENNYRTTPPQLDSDGTYFVYSKLSVDRSHWQRGNTYTCSVSHEALHSHHTQKSLTQSPGK : ____
Reply: 8.56

Task item: Reported pKd, binder feline IgG1a S252Y/S434W (antibody, part only; not given: Variable domains, not shown: another chain or arm of the molecule) constant: ASTTAPSVFPLAPSCGTTSGATVALACLVLGYFPEPVTVSWNSGALTSGVHTFPAVLQASGLYSLSSMVTVPSSRWLSDTFTCNVAHPPSNTKVDKTVRKTDHPPGPKPCDCPKCPPPEMLGGPSIFIFPPKPKDTLYISRTPEVTCLVVDLGPDDSDVQITWFVDNTQVYTAKTSPREEQFNSTYRVVSVLPILHQDWLKGKEFKCKVNSKSLPSPIERTISKAKGQPHEPQVYVLPPAQEELSRNKVSVTCLIKSFHPPDIAVEWEITGQPEPENNYRTTPPQLDSDGTYFVYSKLSVDRSHWQRGNTYTCSVSHEALHWHHTQKSLTQSPGK : ____
Reply: 7.99

Task item: Reported pKd, binder feline IgG1a A378F (antibody, part only; not given: Variable domains, not shown: another chain or arm of the molecule) constant: ASTTAPSVFPLAPSCGTTSGATVALACLVLGYFPEPVTVSWNSGALTSGVHTFPAVLQASGLYSLSSMVTVPSSRWLSDTFTCNVAHPPSNTKVDKTVRKTDHPPGPKPCDCPKCPPPEMLGGPSIFIFPPKPKDTLSISRTPEVTCLVVDLGPDDSDVQITWFVDNTQVYTAKTSPREEQFNSTYRVVSVLPILHQDWLKGKEFKCKVNSKSLPSPIERTISKAKGQPHEPQVYVLPPAQEELSRNKVSVTCLIKSFHPPDIFVEWEITGQPEPENNYRTTPPQLDSDGTYFVYSKLSVDRSHWQRGNTYTCSVSHEALHSHHTQKSLTQSPGK : ____
Reply: 7.13

Task item: Reported pKd, binder feline IgG1a S428I (antibody, part only; not given: Variable domains, not shown: another chain or arm of the molecule) constant: ASTTAPSVFPLAPSCGTTSGATVALACLVLGYFPEPVTVSWNSGALTSGVHTFPAVLQASGLYSLSSMVTVPSSRWLSDTFTCNVAHPPSNTKVDKTVRKTDHPPGPKPCDCPKCPPPEMLGGPSIFIFPPKPKDTLSISRTPEVTCLVVDLGPDDSDVQITWFVDNTQVYTAKTSPREEQFNSTYRVVSVLPILHQDWLKGKEFKCKVNSKSLPSPIERTISKAKGQPHEPQVYVLPPAQEELSRNKVSVTCLIKSFHPPDIAVEWEITGQPEPENNYRTTPPQLDSDGTYFVYSKLSVDRSHWQRGNTYTCSVIHEALHSHHTQKSLTQSPGK : ____
Reply: 7.39

Task item: Reported pKd, binder feline IgG1a S252G (antibody, part only; not given: Variable domains, not shown: another chain or arm of the molecule) constant: ASTTAPSVFPLAPSCGTTSGATVALACLVLGYFPEPVTVSWNSGALTSGVHTFPAVLQASGLYSLSSMVTVPSSRWLSDTFTCNVAHPPSNTKVDKTVRKTDHPPGPKPCDCPKCPPPEMLGGPSIFIFPPKPKDTLGISRTPEVTCLVVDLGPDDSDVQITWFVDNTQVYTAKTSPREEQFNSTYRVVSVLPILHQDWLKGKEFKCKVNSKSLPSPIERTISKAKGQPHEPQVYVLPPAQEELSRNKVSVTCLIKSFHPPDIAVEWEITGQPEPENNYRTTPPQLDSDGTYFVYSKLSVDRSHWQRGNTYTCSVSHEALHSHHTQKSLTQSPGK : ____
Reply: 7.30
